# system.tested: VIM-1 (Pseudomonas aeruginosa, UniProt A0A0F7KYQ8)
# Construct: His tag
# measurement.protocol: Kiapp determination with nitrocefin (method of Waley)
# condition.label: recombinant His-tagged enzyme; 10 min incubation at 37°C; 50 μM NCF
experimental.endpoint: Ki

Short answer for O=C(O)C[C@@H]1CC[C@H](NC(=O)Cc2cccs2)B(O)O1 : Ki was > 160 µM

* * *

# system.tested: FRI-1 (Enterobacter cloacae, UniProt A0A0M5L4T8)
# measurement.protocol: koff of enzyme activity recovery, jump dilution method
# Format: biochemical
# condition.label: calculated using k2/K and koff
experimental.endpoint: Kd (nM)
Your answer is read as nM, so omit the unit and give the number.

Short answer for O=C(O)C[C@@H]1CC[C@H](NC(=O)Cc2cccs2)B(O)O1 : Kd was 509

* * *

# system.tested: OXA-48 (Klebsiella pneumoniae)
# Construct: His tag
# measurement.protocol: Kiapp determination with nitrocefin (method of Waley)
# condition.label: recombinant His-tagged enzyme; 10 min incubation at 37°C; 50 μM NCF
experimental.endpoint: Ki (µM)
Your answer is read as µM, so omit the unit and give the number.

Short answer for O=C(O)C[C@@H]1CC[C@H](NC(=O)Cc2cccs2)B(O)O1 : Ki was 14

* * *

# system.tested: CTX-M-15 (Escherichia coli)
# Construct: His tag
# measurement.protocol: Kiapp determination with nitrocefin (method of Waley)
# condition.label: recombinant His-tagged enzyme; 10 min incubation at 37°C; 50 μM NCF
experimental.endpoint: pKi
As a rule, pKi stands for the negative log10 of the concentration, concentration in M.

Short answer for O=C(O)C[C@@H]1CC[C@H](NC(=O)Cc2cccs2)B(O)O1 [vaborbactam] : pKi was 7.52

* * *

# system.tested: AmpC (Enterobacter cloacae, UniProt P05364)
# Construct: His tag; purchased Emerald Biostructures (Bainbridge Island, WA)
# measurement.protocol: Kiapp determination with nitrocefin (method of Waley)
# Format: biochemical
# condition.label: recombinant His-tagged enzyme; 10 min incubation at 37°C; 50 μM NCF
# Experimental: The protein was mixed with various concentrations of inhibitors in 50 mM sodium phosphate (pH 7.0) and 0.1 mg/ml of bovine serum albumin buffer (reaction buffer), followed by incubation for 10 min at 37°C. Next, 50 μM nitrocefin (NCF; 10 μM for SHV-12 and 25 μM for BKC-1) was added, and substrate cleavage profiles were recorded at 490 nm every 10 s for 10 min. […] Kiapp values were calculated by method of Waley ([24]).
experimental.endpoint: Ki (µM)
Your answer is read as µM, so omit the unit and give the number.

Short answer for O=C(O)C[C@@H]1CC[C@H](NC(=O)Cc2cccs2)B(O)O1 [vaborbactam] : Ki was 0.035

* * *

# system.tested: CTX-M-14 (Escherichia coli)
# Construct: His tag
# measurement.protocol: Kiapp determination with nitrocefin (method of Waley)
# condition.label: recombinant His-tagged enzyme; 10 min incubation at 37°C; 50 μM NCF
experimental.endpoint: pKi
As a rule, pKi stands for the negative log10 of the concentration, concentration in M.

Short answer for O=C(O)C[C@@H]1CC[C@H](NC(=O)Cc2cccs2)B(O)O1 : pKi was 7.48

* * *

# system.tested: BKC-1 (Klebsiella pneumoniae, UniProt A0A0F6QEY8)
# measurement.protocol: koff of enzyme activity recovery, jump dilution method
# Assay type: biochemical
# condition.label: calculated using k2/K and koff
experimental.endpoint: pKd
As a rule, pKd stands for the negative log10 of the concentration, concentration in M.

Short answer for O=C(O)C[C@@H]1CC[C@H](NC(=O)Cc2cccs2)B(O)O1 : pKd was 7.48
